Below: a set of entries, each annotated with reported pKi.
- assayed-target: Histamine H3 receptor (Rattus norvegicus, UniProt Q9QYN8)
- Sequence (Q9QYN8 whole entry): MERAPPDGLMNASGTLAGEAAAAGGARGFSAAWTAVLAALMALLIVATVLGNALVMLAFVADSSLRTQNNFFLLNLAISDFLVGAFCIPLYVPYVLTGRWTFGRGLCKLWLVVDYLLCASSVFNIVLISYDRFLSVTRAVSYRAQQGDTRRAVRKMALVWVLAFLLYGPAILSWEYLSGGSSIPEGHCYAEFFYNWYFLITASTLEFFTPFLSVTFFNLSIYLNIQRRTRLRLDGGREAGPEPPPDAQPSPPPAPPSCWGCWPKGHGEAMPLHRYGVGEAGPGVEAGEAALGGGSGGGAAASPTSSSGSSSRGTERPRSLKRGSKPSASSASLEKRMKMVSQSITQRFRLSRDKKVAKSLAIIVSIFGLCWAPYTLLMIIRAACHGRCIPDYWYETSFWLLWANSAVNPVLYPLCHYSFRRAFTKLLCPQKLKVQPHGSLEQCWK
- experiment: In vitro inhibitory activity against Histamine H3 receptor for K+ evoked depolarization-induced release of [3H]histamine from synaptosomes of rat cerebral cortex
// pKi is dimensionless: -log10 of concentration (M)

OC(c1ccc(OCCCc2c[nH]cn2)cc1)C1CC1 (configuration not stated) = 9.24
O=C(c1ccc(OCCc2c[nH]cn2)cc1)C1CC1 = 8.68
O=C(CCCO)c1ccc(OCCCc2cnc[nH]2)cc1 = 7.52

[ask] Field request: pKi | item: O=C(c1ccc(OCCCCc2cnc[nH]2)cc1)C1CC1
[reply] 6.95

[ask] What do you have for CCCCc1ccc(OCCCc2cnc[nH]2)cc1 ?
[reply] 7.22

[ask] Here is the next compound: OCCCC1(c2ccc(OCCCc3c[nH]cn3)cc2)OCCO1
[reply] 7.40

###

- assayed-target: Histamine H3 receptor (Mus musculus)
- experiment: In vivo Histamine H3 receptor antagonism, dose required to increase in N-t-methylhistamine levels in Swiss mice brains 90 min after p.o. administration
- Format: functional, organism-based
- experimental-parameters: Brain
parameter: log10 ED50 (log10 of the value in mg/kg)
Units before log transform: mg/kg; reported quantity: ED50; transform: log10.

Completed entries (count: 7):
O=C(c1ccc(OCc2c[nH]cn2)cc1)C1CC1 = 0.45
ClCC/C=C/c1ccc(OCCCc2c[nH]cn2)cc1 = -0.14
O=C(c1ccc(OCCc2c[nH]cn2)cc1)C1CC1 = -0.68
O=C(c1ccc(OCCCc2c[nH]cn2)cc1)C1CC1 = -0.85
O/N=C(/c1ccc(OCCCc2c[nH]cn2)cc1)C1CC1 = -0.68
CCCCc1ccc(OCCCc2c[nH]cn2)cc1 = -0.02
OC(c1ccc(OCCCc2c[nH]cn2)cc1)C1CC1 (stereo not drawn) = -0.74

Proceeding to the next compound to report its log10 ED50.
[ask] Name the recorded log10 ED50 for CC(C)(C)CCC#C[C@@H]1C[C@H]1c1c[nH]cn1 .
[reply] -0.92
